Target: T1, glucagon receptor (UniProt P47871 26-477, limits assumed)
T1 construct: whole, on cells; also called GR; Glucagon
T1 sequence (P47871 26-477 limits assumed): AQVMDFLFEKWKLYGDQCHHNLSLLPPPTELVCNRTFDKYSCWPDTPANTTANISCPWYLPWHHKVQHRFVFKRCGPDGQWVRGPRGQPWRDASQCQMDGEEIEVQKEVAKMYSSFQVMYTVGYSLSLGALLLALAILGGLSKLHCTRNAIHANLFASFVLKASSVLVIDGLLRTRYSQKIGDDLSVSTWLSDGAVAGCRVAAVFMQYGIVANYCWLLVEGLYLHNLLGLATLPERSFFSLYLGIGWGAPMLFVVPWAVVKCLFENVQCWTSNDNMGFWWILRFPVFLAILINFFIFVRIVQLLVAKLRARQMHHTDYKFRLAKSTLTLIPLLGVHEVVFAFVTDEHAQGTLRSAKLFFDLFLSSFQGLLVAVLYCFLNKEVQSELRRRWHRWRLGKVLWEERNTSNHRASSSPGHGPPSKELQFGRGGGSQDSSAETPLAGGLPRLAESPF
Assay: receptor binding, method not described
Square brackets hold non-standard residues; d marks the D form. Ends that are not written are not given here. PhLac = O=C(O)[C@@H](O)Cc1ccccc1

BINDER	IC50, nM
[PhLac]TSEYSKYLDSRRAQDFVQWLMNT-NH2 [[PLA6, E9]Glucagon(aa6-29)-NH2]	12.3
